Entries annotated with measured Agonist activity (EC50, M)
# Assayed System: T1, human GLP-1R (human), P43220
# T1 chain: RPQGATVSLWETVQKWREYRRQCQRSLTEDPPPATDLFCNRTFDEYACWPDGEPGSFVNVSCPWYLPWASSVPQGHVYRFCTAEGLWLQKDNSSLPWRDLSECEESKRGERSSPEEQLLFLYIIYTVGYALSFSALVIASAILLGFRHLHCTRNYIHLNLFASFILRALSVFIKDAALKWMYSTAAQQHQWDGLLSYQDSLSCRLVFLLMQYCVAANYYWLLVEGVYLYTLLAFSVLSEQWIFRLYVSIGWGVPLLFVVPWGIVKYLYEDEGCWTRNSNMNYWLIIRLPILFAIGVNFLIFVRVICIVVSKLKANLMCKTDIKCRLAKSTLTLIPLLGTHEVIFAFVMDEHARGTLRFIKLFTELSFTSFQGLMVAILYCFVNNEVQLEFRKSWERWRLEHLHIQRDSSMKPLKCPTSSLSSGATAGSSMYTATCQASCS
Non-standard residues stand in square brackets, D forms with d. No end group written: not given here. NMeY = CN[C@@H](Cc1ccc(O)cc1)C(=O)O; αMeF = C[C@](N)(Cc1ccccc1)C(=O)O; dIva = CC[C@@](C)(N)C(=O)O; Iva = CC[C@](C)(N)C(=O)O; Aib = CC(C)(N)C(=O)O

[NMeY][Aib]EGTFISDYSI[dIva]LDRIAQ[Aib]N[αMeF]VNWLLAQRPSSGAPPPSR (ends and bridges not checked) [Compound 99]: > 1e-06 M

The recorded Agonist activity (EC50, M) for entry [NMeY][Aib]EGTFISDYSIALDRIAQ[Aib]DFVNW[Iva]LAQRPSSGAPPPSR (ends and bridges not checked) [Compound 123] equals > 1e-06 M

The recorded Agonist activity (EC50, M) for entry [NMeY][Aib]EGTFISDYSIALDRIAQQD[αMeF]VNWLLAQRPSSGAPPPS (ends and bridges not checked) [Compound 62] equals > 1e-06 M
